System: SF-539
protocol_summary: NCI tumour cell line growth inhibition, 48 h
Calls of active or inactive are those of the source. Cut-off read from the data, not from the text of the source: active = GI50 up to about 1.1 µM and inactive = higher.
Outcomes: active, inactive

molecule: Cc1cc2[nH]c3c(C#N)c(-c4ccccc4)c(/N=N/c4cccc(C(F)(F)F)c4)c(=O)n3c2cc1C
answer_label: inactive
//
molecule: CC(=O)Nc1ccc(-c2nc3ccccc3s2)cc1Br
answer_label: inactive
//
molecule: O=C1OC(=O)c2c1nc1ccccc1c2-c1ccccc1
answer_label: inactive
//
molecule: O=S1(=O)C[C@H](NCc2ccccc2)[C@H](NCc2ccccc2)C1
answer_label: inactive
//
molecule: CC(CS(=O)(=O)Cc1ccccc1)C(N)=O (stereo not drawn)
answer_label: inactive
//
molecule: COc1cccc2c(N)c3cccc(C(=O)NCCN(C)C)c3nc12
answer_label: active
//
molecule: CC(=O)c1cccc(Nc2nc3ccccc3c3occc23)c1
answer_label: inactive
//
molecule: OC(c1ccc(-c2ccccc2)cc1)C(F)(F)c1nc2ccccc2o1 (stereo not drawn)
answer_label: inactive
